- tgt: panel of 442 kinases (Homo sapiens, UniProt Q16539)
- Construct: purchased Ambit Biosciences (scanMAXX KINOMEscan)
- Sequence (Q16539 whole entry): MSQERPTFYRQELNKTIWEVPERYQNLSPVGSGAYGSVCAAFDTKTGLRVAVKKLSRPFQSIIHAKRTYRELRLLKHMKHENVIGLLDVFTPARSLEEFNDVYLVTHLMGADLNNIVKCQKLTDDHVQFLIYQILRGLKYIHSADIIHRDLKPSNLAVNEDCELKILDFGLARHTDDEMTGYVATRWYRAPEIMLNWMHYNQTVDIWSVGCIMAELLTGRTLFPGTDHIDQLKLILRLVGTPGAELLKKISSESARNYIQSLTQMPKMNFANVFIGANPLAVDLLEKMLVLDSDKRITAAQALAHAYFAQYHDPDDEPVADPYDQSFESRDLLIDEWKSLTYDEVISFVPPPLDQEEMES
- test: biochemical
- Type: binding
- conditions: kinase p38-alpha; 1 µM; read-out: % of control at 1 µM
reported-endpoint: remaining activity at 1 µM (%)
Form entry: value (%) — number only.

A selection of reference data follows.
1. Nc1cc(C(F)(F)F)c(-c2cc(N3CCOCC3)nc(N3CCOCC3)n2)cn1 87
2. Cn1c(=O)n(-c2ccc(C(C)(C)C#N)cc2)c2c3cc(-c4cnc5ccccc5c4)ccc3ncc21 87

Prompt: Answer with the recorded remaining activity at 1 µM for the compound listed here: `FC(F)c1nc2ccccc2n1-c1nc(N2CCOCC2)nc(N2CCOCC2)n1`
Response: 100

Prompt: Answer with the recorded remaining activity at 1 µM for the compound listed here: `COc1ncc(-c2ccc3nccc(-c4ccnnc4)c3c2)cc1NS(=O)(=O)c1ccc(F)cc1F`
Response: 97

----------
Below is a list of entries, each paired with its recorded remaining activity at 1 µM value.
- tgt: panel of 442 kinases (Homo sapiens)
- Construct: purchased Ambit Biosciences (scanMAXX KINOMEscan)
- test: biochemical
- Format: binding
- conditions: ERK4; 1 µM; read-out: % of control at 1 µM
Please don't drop the unit; write it after the number.

A selection of reference data follows.
1. Cn1c(=O)n(-c2ccc(C(C)(C)C#N)cc2)c2c3cc(-c4cnc5ccccc5c4)ccc3ncc21 100%
2. Nc1cc(C(F)(F)F)c(-c2cc(N3CCOCC3)nc(N3CCOCC3)n2)cn1 100%
3. FC(F)c1nc2ccccc2n1-c1nc(N2CCOCC2)nc(N2CCOCC2)n1 85%

Next up:
Prompt: Provide remaining activity at 1 µM, tested on panel of 442 kinases (Homo sapiens), for `COc1ncc(-c2ccc3nccc(-c4ccnnc4)c3c2)cc1NS(=O)(=O)c1ccc(F)cc1F` .
Response: 100%

----------
- tgt: panel of 442 kinases (Homo sapiens)
- Construct: purchased Ambit Biosciences (scanMAXX KINOMEscan)
- test: biochemical
- Assay type: binding
- conditions: kinase TLK2; 1 µM; read-out: TLK2 (% of control at 1 µM)
reported-endpoint: remaining activity at 1 µM (%)
Form entry: value (%) — number only.

A selection of reference data follows.
compound	quantity-unit	measurement
COc1ncc(-c2ccc3nccc(-c4ccnnc4)c3c2)cc1NS(=O)(=O)c1ccc(F)cc1F [Omipalisib]	%	100
Nc1cc(C(F)(F)F)c(-c2cc(N3CCOCC3)nc(N3CCOCC3)n2)cn1 [Buparlisib]	%	100
Cn1c(=O)n(-c2ccc(C(C)(C)C#N)cc2)c2c3cc(-c4cnc5ccccc5c4)ccc3ncc21 [Dactolisib]	%	93

Next up:
Prompt: Answer with the recorded remaining activity at 1 µM for the compound listed here: FC(F)c1nc2ccccc2n1-c1nc(N2CCOCC2)nc(N2CCOCC2)n1 [ZSTK474]
Response: 100

----------
- tgt: panel of 442 kinases (Homo sapiens, UniProt P41240)
- Construct: purchased Ambit Biosciences (scanMAXX KINOMEscan)
- Sequence (P41240 whole entry): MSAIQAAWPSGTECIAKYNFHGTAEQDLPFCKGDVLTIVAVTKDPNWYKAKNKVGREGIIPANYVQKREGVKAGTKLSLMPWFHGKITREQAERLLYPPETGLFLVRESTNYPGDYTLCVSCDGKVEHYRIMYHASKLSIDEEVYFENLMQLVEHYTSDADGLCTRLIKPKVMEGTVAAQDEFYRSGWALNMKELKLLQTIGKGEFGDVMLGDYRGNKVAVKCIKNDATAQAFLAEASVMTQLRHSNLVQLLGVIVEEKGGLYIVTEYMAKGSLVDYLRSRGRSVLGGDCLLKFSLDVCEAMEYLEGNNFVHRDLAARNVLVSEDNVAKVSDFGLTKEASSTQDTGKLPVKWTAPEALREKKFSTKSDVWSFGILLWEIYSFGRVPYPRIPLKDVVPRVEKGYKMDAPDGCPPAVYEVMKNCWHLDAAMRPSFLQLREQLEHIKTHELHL
- test: biochemical
- Assay type: binding
- conditions: CSK; 1 µM; read-out: % of control at 1 µM
reported-endpoint: remaining activity at 1 µM (%)
Form entry: value (%) — number only.

1) Cn1c(=O)n(-c2ccc(C(C)(C)C#N)cc2)c2c3cc(-c4cnc5ccccc5c4)ccc3ncc21 81
2) FC(F)c1nc2ccccc2n1-c1nc(N2CCOCC2)nc(N2CCOCC2)n1 89
3) COc1ncc(-c2ccc3nccc(-c4ccnnc4)c3c2)cc1NS(=O)(=O)c1ccc(F)cc1F 98

Next up:
Prompt: Answer with the recorded remaining activity at 1 µM for the compound listed here: `Nc1cc(C(F)(F)F)c(-c2cc(N3CCOCC3)nc(N3CCOCC3)n2)cn1`
Response: 94

----------
- tgt: panel of 442 kinases (Homo sapiens)
- Construct: purchased Ambit Biosciences (scanMAXX KINOMEscan)
- test: biochemical
- Type: binding
- conditions: EPHA2; 1 µM; read-out: % of control at 1 µM
reported-endpoint: remaining activity at 1 µM (%)
Form entry: value (%) — number only.

A selection of reference data follows.
1. Nc1cc(C(F)(F)F)c(-c2cc(N3CCOCC3)nc(N3CCOCC3)n2)cn1 100
2. Cn1c(=O)n(-c2ccc(C(C)(C)C#N)cc2)c2c3cc(-c4cnc5ccccc5c4)ccc3ncc21 96
3. COc1ncc(-c2ccc3nccc(-c4ccnnc4)c3c2)cc1NS(=O)(=O)c1ccc(F)cc1F 100

Next up:
Prompt: Provide remaining activity at 1 µM, tested on panel of 442 kinases (Homo sapiens), for `FC(F)c1nc2ccccc2n1-c1nc(N2CCOCC2)nc(N2CCOCC2)n1` .
Response: 100

----------
- tgt: panel of 442 kinases (Homo sapiens)
- Construct: purchased Ambit Biosciences (scanMAXX KINOMEscan)
- test: biochemical
- Assay type: binding
- conditions: kinase PIM3; 1 µM; read-out: % of control at 1 µM
Below is a list of entries, each paired with its recorded remaining activity at 1 µM value.
Form entry: value (%) — number only.

A selection of reference data follows.
1) Cn1c(=O)n(-c2ccc(C(C)(C)C#N)cc2)c2c3cc(-c4cnc5ccccc5c4)ccc3ncc21 100
2) COc1ncc(-c2ccc3nccc(-c4ccnnc4)c3c2)cc1NS(=O)(=O)c1ccc(F)cc1F 86
3) Nc1cc(C(F)(F)F)c(-c2cc(N3CCOCC3)nc(N3CCOCC3)n2)cn1 100

Next up:
Prompt: Answer with the recorded remaining activity at 1 µM for the molecule listed here: `FC(F)c1nc2ccccc2n1-c1nc(N2CCOCC2)nc(N2CCOCC2)n1`
Response: 95

----------
Below is a list of entries, each paired with its recorded remaining activity at 1 µM value.
- tgt: panel of 442 kinases (Homo sapiens, UniProt Q8NG66)
- Construct: purchased Ambit Biosciences (scanMAXX KINOMEscan)
- Sequence (Q8NG66 whole entry): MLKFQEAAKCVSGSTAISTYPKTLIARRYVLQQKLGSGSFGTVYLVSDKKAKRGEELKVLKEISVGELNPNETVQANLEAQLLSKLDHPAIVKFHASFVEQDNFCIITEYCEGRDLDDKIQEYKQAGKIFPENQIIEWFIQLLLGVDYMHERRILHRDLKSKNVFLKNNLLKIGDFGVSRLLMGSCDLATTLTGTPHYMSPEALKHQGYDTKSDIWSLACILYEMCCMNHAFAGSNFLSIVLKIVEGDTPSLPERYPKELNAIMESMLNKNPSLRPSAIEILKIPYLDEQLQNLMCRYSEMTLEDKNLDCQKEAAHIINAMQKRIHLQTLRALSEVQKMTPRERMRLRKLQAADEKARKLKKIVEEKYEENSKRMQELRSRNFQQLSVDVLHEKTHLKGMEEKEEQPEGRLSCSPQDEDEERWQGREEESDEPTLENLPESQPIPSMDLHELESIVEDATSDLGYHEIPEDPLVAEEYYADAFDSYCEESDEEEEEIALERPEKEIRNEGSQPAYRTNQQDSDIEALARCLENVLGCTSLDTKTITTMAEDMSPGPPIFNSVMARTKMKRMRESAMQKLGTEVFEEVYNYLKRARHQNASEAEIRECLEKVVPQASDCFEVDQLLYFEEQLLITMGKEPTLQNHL
- test: biochemical
- Type: binding
- conditions: kinase NEK11; 1 µM; read-out: % of control at 1 µM
Form entry: value (%) — number only.

A selection of reference data follows.
1) FC(F)c1nc2ccccc2n1-c1nc(N2CCOCC2)nc(N2CCOCC2)n1 82
2) Cn1c(=O)n(-c2ccc(C(C)(C)C#N)cc2)c2c3cc(-c4cnc5ccccc5c4)ccc3ncc21 81

Prompt: Answer with the recorded remaining activity at 1 µM for the compound listed here: `COc1ncc(-c2ccc3nccc(-c4ccnnc4)c3c2)cc1NS(=O)(=O)c1ccc(F)cc1F`
Response: 100

Prompt: Answer with the recorded remaining activity at 1 µM for the compound listed here: `Nc1cc(C(F)(F)F)c(-c2cc(N3CCOCC3)nc(N3CCOCC3)n2)cn1`
Response: 74

----------
Below is a list of entries, each paired with its recorded remaining binding at 1 µM value.
- tgt: PIK4CB (Homo sapiens)
- Construct: purchased Ambit Biosciences (scanMAXX KINOMEscan)
- Sequence (Q9UBF8 whole entry): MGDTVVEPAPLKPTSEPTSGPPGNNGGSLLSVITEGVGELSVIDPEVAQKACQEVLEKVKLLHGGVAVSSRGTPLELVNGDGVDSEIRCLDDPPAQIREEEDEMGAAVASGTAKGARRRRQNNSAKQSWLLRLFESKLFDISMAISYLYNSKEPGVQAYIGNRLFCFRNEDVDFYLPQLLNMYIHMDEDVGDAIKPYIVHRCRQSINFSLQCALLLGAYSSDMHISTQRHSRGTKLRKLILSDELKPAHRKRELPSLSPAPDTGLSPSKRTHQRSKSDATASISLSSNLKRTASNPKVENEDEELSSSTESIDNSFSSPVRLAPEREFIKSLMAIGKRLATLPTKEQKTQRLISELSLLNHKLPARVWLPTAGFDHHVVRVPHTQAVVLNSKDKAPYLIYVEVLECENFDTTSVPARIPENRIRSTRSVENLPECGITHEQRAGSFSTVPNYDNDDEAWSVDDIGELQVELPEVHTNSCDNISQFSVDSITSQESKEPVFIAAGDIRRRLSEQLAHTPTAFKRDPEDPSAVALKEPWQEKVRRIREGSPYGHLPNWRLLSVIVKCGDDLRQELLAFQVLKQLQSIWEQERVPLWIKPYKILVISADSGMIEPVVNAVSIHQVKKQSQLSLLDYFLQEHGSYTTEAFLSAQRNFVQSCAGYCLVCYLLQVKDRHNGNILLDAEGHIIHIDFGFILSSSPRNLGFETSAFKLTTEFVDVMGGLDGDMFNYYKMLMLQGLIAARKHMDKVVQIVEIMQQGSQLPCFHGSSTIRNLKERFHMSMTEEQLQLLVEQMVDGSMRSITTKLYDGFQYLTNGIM
- test: KINOMEscan, PIK4CB
- Format: binding
- conditions: kinase PIK4CB; 1 µM; read-out: % of control at 1 µM
Form entry: value (%) — number only.

compound	quantity-unit	remaining binding at 1 µM
Nc1cc(C(F)(F)F)c(-c2cc(N3CCOCC3)nc(N3CCOCC3)n2)cn1 [Buparlisib]	%	86
FC(F)c1nc2ccccc2n1-c1nc(N2CCOCC2)nc(N2CCOCC2)n1 [ZSTK474]	%	84
CS(=O)(=O)N1CCN(Cc2cc3nc(-c4cccc5[nH]ncc45)nc(N4CCOCC4)c3s2)CC1 [Pictilisib]	%	100

Next up:
Prompt: Answer with the recorded remaining binding at 1 µM for the compound listed here: COc1ncc(-c2ccc3nccc(-c4ccnnc4)c3c2)cc1NS(=O)(=O)c1ccc(F)cc1F [Omipalisib]
Response: 0.7

----------
- tgt: panel of 442 kinases (Homo sapiens, UniProt Q9BUB5)
- Construct: purchased Ambit Biosciences (scanMAXX KINOMEscan)
- Sequence (Q9BUB5 whole entry): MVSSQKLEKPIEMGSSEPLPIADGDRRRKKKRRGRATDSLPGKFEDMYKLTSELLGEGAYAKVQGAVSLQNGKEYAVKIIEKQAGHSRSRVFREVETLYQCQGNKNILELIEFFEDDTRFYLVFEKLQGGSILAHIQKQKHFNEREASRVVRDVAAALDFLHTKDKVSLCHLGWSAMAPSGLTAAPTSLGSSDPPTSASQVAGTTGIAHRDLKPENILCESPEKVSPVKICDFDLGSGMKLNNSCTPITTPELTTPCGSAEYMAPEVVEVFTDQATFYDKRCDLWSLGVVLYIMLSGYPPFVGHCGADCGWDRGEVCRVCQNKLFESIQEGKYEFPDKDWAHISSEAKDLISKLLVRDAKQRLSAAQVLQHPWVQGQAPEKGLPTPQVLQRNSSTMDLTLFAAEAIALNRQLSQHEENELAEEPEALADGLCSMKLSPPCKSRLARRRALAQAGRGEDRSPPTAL
- test: biochemical
- Assay type: binding
- conditions: kinase MKNK1; 1 µM; read-out: % of control at 1 µM
reported-endpoint: remaining activity at 1 µM (%)
Form entry: value (%) — number only.

Prompt: Answer with the recorded remaining activity at 1 µM for the molecule listed here: `COc1ncc(-c2ccc3nccc(-c4ccnnc4)c3c2)cc1NS(=O)(=O)c1ccc(F)cc1F`
Response: 43

Prompt: Answer with the recorded remaining activity at 1 µM for the molecule listed here: `FC(F)c1nc2ccccc2n1-c1nc(N2CCOCC2)nc(N2CCOCC2)n1`
Response: 92

Prompt: Answer with the recorded remaining activity at 1 µM for the molecule listed here: `Nc1cc(C(F)(F)F)c(-c2cc(N3CCOCC3)nc(N3CCOCC3)n2)cn1`
Response: 100

Prompt: Answer with the recorded remaining activity at 1 µM for the molecule listed here: `Cn1c(=O)n(-c2ccc(C(C)(C)C#N)cc2)c2c3cc(-c4cnc5ccccc5c4)ccc3ncc21`
Response: 100

----------
Below is a list of entries, each paired with its recorded remaining activity at 1 µM value.
- tgt: panel of 442 kinases (Homo sapiens, UniProt Q52WX2)
- Construct: purchased Ambit Biosciences (scanMAXX KINOMEscan)
- Sequence (Q52WX2 whole entry): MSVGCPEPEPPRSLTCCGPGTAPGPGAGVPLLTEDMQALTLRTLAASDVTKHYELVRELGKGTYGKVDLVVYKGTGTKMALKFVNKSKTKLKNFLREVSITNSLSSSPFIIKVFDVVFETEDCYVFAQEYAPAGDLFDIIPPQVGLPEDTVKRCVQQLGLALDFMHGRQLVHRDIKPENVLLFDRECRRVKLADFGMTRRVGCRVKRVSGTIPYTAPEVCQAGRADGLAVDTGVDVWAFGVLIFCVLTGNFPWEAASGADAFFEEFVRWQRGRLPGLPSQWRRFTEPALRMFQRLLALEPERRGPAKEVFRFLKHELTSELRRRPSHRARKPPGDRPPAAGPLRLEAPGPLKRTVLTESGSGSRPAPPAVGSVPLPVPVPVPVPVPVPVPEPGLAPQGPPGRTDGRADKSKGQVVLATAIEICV
- test: biochemical
- Assay type: binding
- conditions: kinase SBK1; 1 µM; read-out: SBK1 (% of control at 1 µM)
Form entry: value (%) — number only.

Prompt: Provide remaining activity at 1 µM, tested on panel of 442 kinases (Homo sapiens, UniProt Q52WX2), for `FC(F)c1nc2ccccc2n1-c1nc(N2CCOCC2)nc(N2CCOCC2)n1` .
Response: 100

Prompt: Provide remaining activity at 1 µM, tested on panel of 442 kinases (Homo sapiens, UniProt Q52WX2), for `Cn1c(=O)n(-c2ccc(C(C)(C)C#N)cc2)c2c3cc(-c4cnc5ccccc5c4)ccc3ncc21` .
Response: 92

Prompt: Provide remaining activity at 1 µM, tested on panel of 442 kinases (Homo sapiens, UniProt Q52WX2), for `Nc1cc(C(F)(F)F)c(-c2cc(N3CCOCC3)nc(N3CCOCC3)n2)cn1` .
Response: 94

Prompt: Provide remaining activity at 1 µM, tested on panel of 442 kinases (Homo sapiens, UniProt Q52WX2), for `COc1ncc(-c2ccc3nccc(-c4ccnnc4)c3c2)cc1NS(=O)(=O)c1ccc(F)cc1F` .
Response: 100
